The entries below are paired with their reported IC50.
# System under test: UniProt Q08345
# Sequence (Q08345 19-876 isoform Q08345-2 limits assumed): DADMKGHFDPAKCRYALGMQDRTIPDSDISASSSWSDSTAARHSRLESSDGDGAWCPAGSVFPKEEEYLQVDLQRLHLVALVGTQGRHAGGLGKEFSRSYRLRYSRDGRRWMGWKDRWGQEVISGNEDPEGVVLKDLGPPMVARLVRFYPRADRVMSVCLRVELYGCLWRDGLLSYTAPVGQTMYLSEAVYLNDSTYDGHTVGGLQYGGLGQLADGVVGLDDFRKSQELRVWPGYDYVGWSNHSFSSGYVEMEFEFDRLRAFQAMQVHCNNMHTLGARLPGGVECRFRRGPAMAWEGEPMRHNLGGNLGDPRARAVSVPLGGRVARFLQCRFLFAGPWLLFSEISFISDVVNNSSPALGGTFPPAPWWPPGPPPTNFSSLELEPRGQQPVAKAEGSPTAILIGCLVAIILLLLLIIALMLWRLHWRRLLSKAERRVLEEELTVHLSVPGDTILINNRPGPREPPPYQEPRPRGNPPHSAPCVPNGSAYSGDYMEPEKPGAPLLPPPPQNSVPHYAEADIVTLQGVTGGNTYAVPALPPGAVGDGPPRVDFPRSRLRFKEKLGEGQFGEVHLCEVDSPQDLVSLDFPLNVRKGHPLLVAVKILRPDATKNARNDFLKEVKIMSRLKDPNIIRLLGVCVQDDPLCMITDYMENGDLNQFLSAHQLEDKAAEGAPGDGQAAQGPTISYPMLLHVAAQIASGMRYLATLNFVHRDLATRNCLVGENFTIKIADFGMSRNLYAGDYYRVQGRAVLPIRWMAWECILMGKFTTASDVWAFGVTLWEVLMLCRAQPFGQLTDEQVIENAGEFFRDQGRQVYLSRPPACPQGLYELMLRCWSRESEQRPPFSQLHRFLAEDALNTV
# Assay comment: Evaluation of DDR1 kinase inhibition (LANCE Ultra TR-FRET kinase assay)
# Type: biochemical
# Design: purchased Carna Biosciences 08-113
# Test settings: DDR1 protein 0.5 nM, LANCE Ultra ULight-poly GAT substrate, 2 hours at room temperature, duplicate; read-out: DDR-1 IC50
Give the number; nM is assumed, so skip it.

Below, 5 compounds whose answers are already recorded.
// query IC50 value for entry Nc1cc(C(=O)N2CC(c3nn(CC(=O)N4CCC[C@H]4C(F)(F)F)c4cccc(F)c34)C2)ccn1
0.9

Quick one: IC50 of CN(CC(F)F)C(=O)Cn1nc(C2CN(C(=O)c3cc(N)ncc3F)C2)c2ccccc21 ?
4.8

// lookup IC50 for CC(C)[C@@H]1COCCN1C(=O)Cn1nc(C2CN(C(=O)c3ccnc(N)c3)C2)c2c(F)cc(F)cc21
0.3

For the compound Nc1cc(C(=O)N2CC(c3nn(CC(=O)N4CCC[C@H]4C(F)(F)F)c4ccc(Cl)cc34)C2)c(F)cn1 , what IC50 is on record?
1.6

Returns the measured IC50 for the input compound. Input: C[C@@H]1CN(C(=O)Cn2nc(C3CN(C(=O)c4ccnc(N)c4)C3)c3c(F)cc(F)cc32)C[C@H](C)O1
0.3

More entries:
Name the reported IC50 value associated with the compound Nc1cc(C(=O)N2CC(c3nn(Cc4cn(CC5COC5)nn4)c4cccc(F)c34)C2)ccn1
190

Values compiled from patent EP4624465A1.
